We begin with a simple list: items and their reported Emax.
- MEASURED_ON: BRAF^V600E protein (Homo sapiens, UniProt P15056, V600E)
- Sequence (P15056 whole entry V600E): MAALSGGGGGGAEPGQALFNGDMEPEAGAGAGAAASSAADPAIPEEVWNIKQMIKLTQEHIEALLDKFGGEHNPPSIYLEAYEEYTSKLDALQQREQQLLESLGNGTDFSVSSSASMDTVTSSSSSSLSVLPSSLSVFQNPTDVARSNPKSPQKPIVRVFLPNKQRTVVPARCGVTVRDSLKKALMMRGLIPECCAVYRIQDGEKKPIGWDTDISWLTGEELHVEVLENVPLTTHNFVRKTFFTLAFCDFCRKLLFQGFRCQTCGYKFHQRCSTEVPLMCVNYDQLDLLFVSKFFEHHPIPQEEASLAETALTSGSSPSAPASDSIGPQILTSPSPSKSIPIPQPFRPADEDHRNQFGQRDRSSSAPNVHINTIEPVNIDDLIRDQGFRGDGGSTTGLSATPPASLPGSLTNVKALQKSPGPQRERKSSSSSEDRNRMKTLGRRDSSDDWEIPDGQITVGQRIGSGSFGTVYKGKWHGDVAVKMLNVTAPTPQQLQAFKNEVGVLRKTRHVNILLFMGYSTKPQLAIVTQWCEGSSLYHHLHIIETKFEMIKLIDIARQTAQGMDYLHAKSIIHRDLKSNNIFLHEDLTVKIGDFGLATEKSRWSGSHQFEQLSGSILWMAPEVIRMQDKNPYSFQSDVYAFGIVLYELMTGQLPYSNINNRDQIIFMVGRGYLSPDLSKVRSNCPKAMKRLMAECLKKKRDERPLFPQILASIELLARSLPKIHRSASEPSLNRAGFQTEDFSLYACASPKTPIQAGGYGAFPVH
- EXPERIMENT_DESCRIPTION: HiBiT cellular BRAF V600E degradation assay
- Assay type: cell-based
- CONDITIONS_USED: A375.10 cells, 24 h incubation; Emax = amount of residual protein remaining in the cell after compound treatment; read-out: HiBit 24 h Emax
QUANTITY_MEASURED: Emax (%)

- CCN(C)S(=O)(=O)Nc1ccc(F)c(C(=O)c2c[nH]c3ncc(-c4cnc(N5CCC(CC(=O)N6CCC(c7ccc(NC8CCC(=O)NC8=O)cc7)CC6)CC5)nc4)cc23)c1F (centres unmarked): 15
- CCN(C)S(=O)(=O)Nc1ccc(F)c(C(=O)c2c[nH]c3ncc(-c4cnc(N5CCN(C(=O)CC6CCN(c7ccc8c(c7)n(C)c(=O)n8C7CCC(=O)NC7=O)CC6)CC5)nc4)cc23)c1F (centres unmarked): 35.2
- CCN(C)S(=O)(=O)Nc1ccc(F)c(C(=O)c2c[nH]c3ncc(-c4cnc(N5CCN(C(=O)CC6CCC(c7ccc(NC8CCC(=O)NC8=O)cc7)CC6)CC5)nc4)cc23)c1F (single isomer, unassigned): 23.1
- CCN(C)S(=O)(=O)Nc1ccc(F)c(C(=O)c2c[nH]c3ncc(-c4ccc(CN5CCC(C(=O)N6CCN(c7ccc(OC8CCC(=O)NC8=O)cc7)CC6)C5)cc4)cc23)c1F (centres unmarked): 19
- O=C1CCC(Oc2ccc(C3CCN(CC(=O)N4CC5(C4)CN(c4ncc(-c6cnc7[nH]cc(C(=O)c8c(F)ccc(NS(=O)(=O)N9CCCC9)c8F)c7c6)cn4)C5)CC3)cc2)C(=O)N1 (centres unmarked): 12
